- Subject of test: Receptor-type tyrosine-protein kinase FLT3 (Homo sapiens, UniProt P36888, ITD)
- Sequence (P36888 whole entry, looked up, change not shown): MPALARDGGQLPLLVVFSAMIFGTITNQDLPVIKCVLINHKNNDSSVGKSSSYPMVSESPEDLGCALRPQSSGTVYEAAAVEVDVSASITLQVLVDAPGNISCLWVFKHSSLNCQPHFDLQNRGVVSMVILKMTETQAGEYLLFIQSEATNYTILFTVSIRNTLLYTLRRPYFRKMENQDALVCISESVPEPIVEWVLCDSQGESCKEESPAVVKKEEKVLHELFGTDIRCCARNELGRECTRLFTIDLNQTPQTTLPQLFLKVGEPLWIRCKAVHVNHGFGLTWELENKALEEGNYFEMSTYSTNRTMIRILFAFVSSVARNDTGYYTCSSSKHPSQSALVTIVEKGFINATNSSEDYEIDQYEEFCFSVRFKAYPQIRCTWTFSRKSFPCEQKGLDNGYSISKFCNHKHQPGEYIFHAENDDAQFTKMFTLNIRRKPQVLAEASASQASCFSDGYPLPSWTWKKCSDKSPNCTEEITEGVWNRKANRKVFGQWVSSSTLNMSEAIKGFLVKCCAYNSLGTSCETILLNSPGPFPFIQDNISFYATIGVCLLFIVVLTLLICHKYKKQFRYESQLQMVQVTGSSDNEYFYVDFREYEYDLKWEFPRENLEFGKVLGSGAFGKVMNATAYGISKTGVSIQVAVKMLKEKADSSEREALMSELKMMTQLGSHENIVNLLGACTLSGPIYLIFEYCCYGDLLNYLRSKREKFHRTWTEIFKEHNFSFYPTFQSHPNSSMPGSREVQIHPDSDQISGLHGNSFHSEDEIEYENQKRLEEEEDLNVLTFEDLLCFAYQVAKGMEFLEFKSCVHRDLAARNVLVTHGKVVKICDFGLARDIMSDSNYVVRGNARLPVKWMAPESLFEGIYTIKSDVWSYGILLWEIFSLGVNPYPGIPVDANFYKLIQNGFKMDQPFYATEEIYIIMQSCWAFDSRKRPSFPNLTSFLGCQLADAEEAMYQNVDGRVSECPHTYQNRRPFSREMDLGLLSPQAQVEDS
- Format: cell-based, BaF3
- Description: Inhibition of FLT3 ITD mutant (unknown origin) expressed in mouse BaF3 cells
pIC50: −log10 of the molar value.
pIC50 values for the compounds below.
Measured endpoint: pIC50

Chemical smiles	Measured endpoint	Recorded number
CC(C)(C)c1cc(NC(=O)Nc2ccc(Oc3ccnc4cc(OCC5CCCC5)c(OCC5CCCC5)cc34)c(F)c2)no1	pIC50	7.43
CC(C)(C)c1cc(NC(=O)Nc2ccc(Oc3ccnc4[nH]ccc34)c(F)c2)no1	pIC50	6.85
CC(C)(C)c1cc(NC(=O)Nc2ccc(Oc3nccc4ccccc34)c(F)c2)no1	pIC50	5.90
CCCOc1cc2c(Oc3ccc(NC(=O)Nc4cc(C(C)(C)C)on4)cc3F)ccnc2cc1OC	pIC50	7.12
CCOc1cc2nccc(Oc3ccc(NC(=O)Nc4cc(C(C)(C)C)on4)cc3F)c2cc1OCC	pIC50	8.51
